Origin of the recorded values: the supplement of paper PMC10567573

B1: NR2F2 (parent)
chain: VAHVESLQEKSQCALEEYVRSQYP

variants of: B1; experiment: protein stability index of a GFP-peptide fusion (GPS, HEK-293T) (PSI 1-6); higher = more stable; conditions: c terminus: a fixed tail appended;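 further: lentivirally expressed fusions sorted by FACS into six bins by GFP to DsRed ratio, PSI derived from sequencing read proportions per bin multiplied by bin number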
// values below are reported protein stability index
The answer should be written as a number, with no unit following it.

{"sequenceCode": "VADVESLQEKSQCALEEYVRSQYP", "protein stability index": 4.6}

protein stability index lookup needed for `VFHVESLQEKSQCALEEYVRSQYP` , thanks. 2.59

What value of protein stability index has been recorded for this entry: `VAHVESLQEKSQCALEEYVRSQYW` 2.45

Entry `VAHVESLQGKSQCALEEYVRSQYP` has what protein stability index? 2.89

Record request: protein stability index value, item `VAHVESLQEKSQCALEEYVRSMYP` 2.87

Which protein stability index value belongs to `VAHVESLQEKSQCLLEEYVRSQYP` ? 2.88

Need protein stability index of `VAWVESLQEKSQCALEEYVRSQYP` , thanks. 2.26

Which measured protein stability index value corresponds to `VAHVTSLQEKSQCALEEYVRSQYP` ? 2.93

Param item = `VAHVESLQEKSQCALEEYVRSQEP` ; retrieve measured protein stability index. 4.71

What does the data say about its protein stability index? Entry: `VAHSESLQEKSQCALEEYVRSQYP` 4.11

Reported protein stability index, variant `DAHVESLQEKSQCALEEYVRSQYP` : ____ 4.15

Any idea what its protein stability index is? The variant is `VAHVESLQTKSQCALEEYVRSQYP` 3.11

What value of measured protein stability index is listed for `VAHVESLQEKSQCALEENVRSQYP` ? 3.91

Consider the variant shown here: `VANVESLQEKSQCALEEYVRSQYP` What is its recorded protein stability index? 3.77

Request the reported protein stability index associated with `VAHVEDLQEKSQCALEEYVRSQYP` 3.86

Could you tell me which protein stability index is on file for `VAHVESLQEKSQCALEEYVRSQIP` ? 3.9

Entry `VAHVESLQHKSQCALEEYVRSQYP` : reported protein stability index = ? 3.23

Name the recorded protein stability index for `VAHVNSLQEKSQCALEEYVRSQYP` . 3.38
